- Tested on: L1210 leukemia ip in BDF1 mice, survival T/C
- test summary: NCI In Vivo Anticancer Drug Screen. Data for tumor model L1210 Leukemia (intraperitoneal) in B6D2F1 (BDF1) mice
- settings: endpoint: mean survival time; dose: 400.0 mg/kg/injection; schedule: Q01DX001 (ip); vehicle: Klucel (hydroxypropylcellulose) (HPC); higher = longer survival
Toxic doses and inconclusive results are not listed.
For each entry below, report its T/C value.

Reported T/C for `CN1CN(c2ccccc2)C2(CCN(CCc3cc4ccccc4o3)CC2)C1=O` was 101 % of control

Query `O=C(O)C1=NNC(C(=O)O)=NN1` yields T/C of 104 % of control

Given item `Cc1ccc(-c2ccc(-c3ccc(C)cc3)o2)cc1` , the value recorded as its T/C is 94 % of control

So, `CCOC(=O)/C(C#N)=C\c1ccc(N(CC)CC)cc1` ? Its T/C was 89 % of control

Summary for this compound, CCCCCC1CCC(OC(C)=O)CC1 (stereo not drawn) : T/C is 96 % of control

For this compound ( `CCOC(=O)/C=C(\C)c1ccc([N+](=O)[O-])cc1` ), measured T/C is 97 % of control

For reference, reported T/C for `Cc1ncc2c(=O)n(-c3ccc(C(=O)O)cc3)[nH]c2n1` stands at 110 % of control

So, `CCCCOC(=O)c1ccc(OC(=O)Nc2ccc([N+](=O)[O-])cc2OC)cc1` ? Its T/C was 101 % of control

The value of T/C measured for the compound `CN(C)c1ccc(C(=O)CCCN2CCC3(CC2)C(=O)NCN3c2ccccc2)cc1` turned out to be 100 % of control

Form field T/C, entry `Nc1cccc(OCCCOc2ccccc2)c1` : 94 % of control

The recorded T/C for entry `Cc1ccc(S(=O)(=O)/N=C2\SCc3ccccc32)cc1` equals 98 % of control

The reported T/C of the compound `Cc1ccc(NC(=O)c2ccc([N+](=O)[O-])cc2)c(C)c1` was 112 % of control

// T/C lookup, compound = `COc1ncnc2nc[nH]c12` , result: 101 % of control

###

- System: L1210 leukemia ip in BDF1 mice, survival T/C
- test summary: NCI In Vivo Anticancer Drug Screen. Data for tumor model L1210 Leukemia (intraperitoneal) in B6D2F1 (BDF1) mice
- settings: endpoint: mean survival time; dose: 25.0 mg/kg/injection; schedule: Q01DX009 (ip); vehicle: saline; higher = longer survival
Toxic doses and inconclusive results are not listed.
measurement name: T/C

// field: T/C; key: `C=CCC#N` ; value = 95 % of control

For record COc1ccc(C2(SCC(N)C(=O)O)c3ccccc3-c3ccccc32)cc1 (stereo not given) the listed T/C is 101 % of control

The reported value for CCC1COC(=O)N1 (stereo not given) in terms of T/C is 102 % of control

// field: T/C; key: `Clc1ccccc1OCCNC1CC1` ; value = 97 % of control

Form field T/C, entry `O=C1C(CO)=C[C@@H](O)[C@H]2O[C@@H]12` : 98 % of control

In plain terms, CN(C)CCC(c1ccccc1)c1cc(Cl)ccn1 (stereo not given) has a documented T/C of 95 % of control

Briefly, T/C measured for `Cc1cc2nc3ccc(=[N+](C)C)cc-3sc2cc1N` : 101 % of control

For this molecule ( CCC(CN(C)C)C(=O)c1ccccc1 (stereo not given) ), measured T/C is 88 % of control

For record `c1ccc(C[n+]2ccc3ccccc3c2)cc1` the listed T/C is 107 % of control

Note to self: T/C recorded for `CCN1c2ccccc2C(Cl)(c2ccc(N(C)C)cc2)c2ccccc21` was 112 % of control

Item: `Nc1ccc(S(=O)(=O)c2cc(O)c3ccccc3c2O)cc1` | T/C: 91 % of control

Quick note, T/C for CC(C)=CCC(C#N)(CCN(C)C)c1ccc2ccccc2c1 (stereo not given) landed at 95 % of control

The recorded T/C for `CC(=O)NCCCCCC(=O)O` is 97 % of control

Form: molecule = CON(C)CC(Cl)c1ccccc1 (stereo not given) ; T/C = 92 % of control

Memo: COc1cc2c(cc1OC)C13CCN4CC5=CCOC6CC(=O)N2C1C6C5CC43 (stereo not given) (tested in a mixture with another compound) , reported T/C: 97 % of control
